Experiment: Pharmacokinetic interaction study of lisinopril and memantine
Assay type: in vivo
Conditions: rat, serum; Lisinopril 0.3 mg/kg; 90 min; read-out: Concentration of Lisinopril, Mean

>  <Compound String>
NCCCC[C@H](N[C@@H](CCc1ccccc1)C(=O)O)C(=O)N1CCC[C@H]1C(=O)O

>  <concentration at 90 min (ng/mL)>
9.44

$$$$

---

Assay: Pharmacokinetic interaction study of lisinopril and memantine
Type: in vivo
Conditions: rat, serum; Lisinopril 1 mg/kg; 45 min; read-out: Concentration of Lisinopril, Mean

>  <Compound String>
NCCCC[C@H](N[C@@H](CCc1ccccc1)C(=O)O)C(=O)N1CCC[C@H]1C(=O)O

>  <Quantity Unit>
ng/mL

>  <concentration at 45 min>
9.86

$$$$

---

Experiment: Pharmacokinetic interaction study of lisinopril and memantine
Type: in vivo
Details: rat, serum; Memantine 1 mg/kg; 90 min; read-out: Concentration of Memantine, Mean

>  <Compound>
CC12CC3CC(C)(C1)CC(N)(C3)C2 [Memantine, 1-amino-3,5-dimethyladamantane]

>  <Quantity Unit>
ng/mL

>  <concentration at 90 min>
22.3

$$$$

---

Assay: Pharmacokinetic interaction study of lisinopril and memantine
Type: in vivo
Settings: rat, serum; Memantine 0.3 mg/kg; 45 min; read-out: Concentration of Memantine, Mean
Endpoint Label: concentration at 45 min (ng/mL)

>  <Compound>
CC12CC3CC(C)(C1)CC(N)(C3)C2 [Memantine, 1-amino-3,5-dimethyladamantane]

>  <Quantity Unit>
ng/mL

>  <Reported>
5.58

$$$$

---

Assay: Pharmacokinetic interaction study of lisinopril and memantine
Type: in vivo
Settings: rat, serum; dose 1 mg/kg; read-out: Mean AUC (AUC0-135 min) of Lisinopril, Solo (converted)
Experimental: The statistical significance of differences between corresponding solo treatment and combination treatment mean values was evaluated by Student's unpaired t-test. The areas under the curve between TO (time of dosing) and last tested timepoint (135 min) were also calculated to assess the drug exposures in each animal (Table 2).

>  <Compound String>
NCCCC[C@H](N[C@@H](CCc1ccccc1)C(=O)O)C(=O)N1CCC[C@H]1C(=O)O

>  <Quantity Unit>
ng·h/mL

>  <AUC(0-t)>
61

$$$$

---

Test: Pharmacokinetic interaction study of lisinopril and memantine
Format: in vivo
Conditions: rat, serum; Lisinopril 0.3 mg/kg; 45 min; read-out: Concentration of Lisinopril, Mean

>  <Compound String>
NCCCC[C@H](N[C@@H](CCc1ccccc1)C(=O)O)C(=O)N1CCC[C@H]1C(=O)O

>  <Quantity Unit>
ng/mL

>  <concentration at 45 min>
5.75

$$$$

---

Experiment: Pharmacokinetic interaction study of lisinopril and memantine
Type: in vivo
Details: rat, serum; Memantine 1 mg/kg; 45 min; read-out: Concentration of Memantine, Mean
Endpoint Label: concentration at 45 min (ng/mL)

>  <Compound>
CC12CC3CC(C)(C1)CC(N)(C3)C2 [Memantine, 1-amino-3,5-dimethyladamantane]

>  <Quantity Unit>
ng/mL

>  <Reported>
11.4

$$$$

---

Test: Pharmacokinetic interaction study of lisinopril and memantine
Assay type: in vivo
Settings: rat, serum; dose 1 mg/kg; read-out: Mean AUC (AUC0-135 min) of Memantine, Solo (converted)
Endpoint Label: AUC(0-t) (ng·h/mL)

>  <Molecule>
CC12CC3CC(C)(C1)CC(N)(C3)C2 [Memantine, 1-amino-3,5-dimethyladamantane]

>  <Endpoint Label>
AUC(0-t)

>  <Quantity Unit>
ng·h/mL

>  <Reported>
34.4

$$$$

---

Assay: Pharmacokinetic interaction study of lisinopril and memantine
Type: in vivo
Details: rat, serum; Memantine 0.3 mg/kg; 90 min; read-out: Concentration of Memantine, Mean
Endpoint Label: concentration at 90 min (ng/mL)

>  <Compound>
CC12CC3CC(C)(C1)CC(N)(C3)C2 [Memantine, 1-amino-3,5-dimethyladamantane]

>  <Reported>
8.46

$$$$

---

Test: Pharmacokinetic interaction study of lisinopril and memantine
Type: in vivo
Details: rat, serum; Lisinopril 1 mg/kg; 135 min; read-out: Concentration of Lisinopril, Mean

>  <Compound String>
NCCCC[C@H](N[C@@H](CCc1ccccc1)C(=O)O)C(=O)N1CCC[C@H]1C(=O)O

>  <concentration at 135 min [ng/mL]>
57

$$$$

---

Assay: Pharmacokinetic interaction study of lisinopril and memantine
Type: in vivo
Details: rat, serum; Lisinopril 1 mg/kg; 90 min; read-out: Concentration of Lisinopril, Mean
Endpoint Label: concentration at 90 min (ng/mL)

>  <Compound String>
NCCCC[C@H](N[C@@H](CCc1ccccc1)C(=O)O)C(=O)N1CCC[C@H]1C(=O)O

>  <Endpoint Label>
concentration at 90 min

>  <Reported>
43

$$$$

---

Experiment: Pharmacokinetic interaction study of lisinopril and memantine
Format: in vivo
Settings: rat, serum; Memantine 0.3 mg/kg; 135 min; read-out: Concentration of Memantine, Mean

>  <Molecule>
CC12CC3CC(C)(C1)CC(N)(C3)C2 [Memantine, 1-amino-3,5-dimethyladamantane]

>  <concentration at 135 min>
8.91 ng/mL

$$$$
